Molecular target: Thyroid hormone receptor (Homo sapiens, UniProt P10827+P10828)
Experiment: Agonist activity at THR in HepG2 cells by whole cell assay
REPORTED PROPERTY: EC50 (nM)
# output: bare number, implied unit nM

See these solved cases before continuing.
| COMPOUND | MEASUREMENT UNITS | NUMBER |
| --- | --- | --- |
| Cc1cc2oc(C(=O)O)cc2c(C)c1Oc1ccc(O)c(C(C)C)c1 | nM | 110 |
| Cc1cc2c(c(C)c1Oc1ccc(O)c(C(C)C)c1)CC(CC(=O)O)O2 (configuration not stated) | nM | 5.1 |

Let me know recorded EC50 for CC(C)c1cc(Oc2c(C(C)C)cc(CC3SC(=O)NC3=O)cc2C(C)C)ccc1O (configuration not stated) , thanks.
70

Let me know recorded EC50 for Cc1cc2c(CC(=O)O)coc2c(C)c1Oc1ccc(O)cc1 , thanks.
1000

Let me know recorded EC50 for Cc1cc2c(CC(=O)O)coc2c(C)c1Oc1ccc(O)c(C(C)C)c1 , thanks.
0.3

Let me know recorded EC50 for Cc1ccc(CC2CC(=O)NC(=O)S2)c(C)c1Oc1ccc(O)c(C(C)C)c1 (configuration not stated) , thanks.
0.06

Let me know recorded EC50 for COc1ccc(Oc2c(Br)cc3oc(C(=O)O)cc3c2Br)cc1C(C)C , thanks.
1000

---

Molecular target: Thyroid hormone receptor (Homo sapiens, UniProt P10827+P10828)
Assay: Agonist activity at THR in HepG2 cells by whole cell assay
REPORTED PROPERTY: pEC50
On this scale, pEC50 is minus log10 of a concentration expressed in M (mol/L).

| COMPOUND | ASSAY TARGET | NUMBER |
| --- | --- | --- |
| O=C(O)c1cc2c(Br)c(Oc3ccc(O)c(C(=O)c4ccc(F)cc4)c3)c(Br)cc2o1 | Thyroid hormone receptor (Homo sapiens, UniProt P10827+P10828) | 6.68 |
| CC(C)c1cc(Oc2ccc3oc(C(=O)O)cc3c2)ccc1O | Thyroid hormone receptor (Homo sapiens, UniProt P10827+P10828) | 6.00 |
| CC(C)c1cc(Oc2c(Br)cc3oc(C(=O)O)cc3c2Br)ccc1O | Thyroid hormone receptor (Homo sapiens, UniProt P10827+P10828) | 8.15 |
| O=C(O)c1cc2c(Br)c(Oc3ccc(O)c(C(O)c4ccc(F)cc4)c3)c(Br)cc2o1 (stereo not given) | Thyroid hormone receptor (Homo sapiens, UniProt P10827+P10828) | 7.66 |

GET pEC50 where system = Thyroid hormone receptor (Homo sapiens, UniProt P10827+P10828) and item = Cc1cc(CC2SC(=O)NC2=O)cc(C)c1Oc1ccc(O)c(C(C)C)c1 (stereo not given)
10.10
